# testName: Approximate ambient-temperature solubility, solvent addition method
# Format: physicochemical
# protocolConditions: organic solvent or mixture, thermodynamic from solid; chloroform:EtOH 50:50, ambient temperature
Counter-ions that a name gives are not always drawn.
measurementKind: solubility

Give the reported value of solubility for this record: CC[C@H]1CC2C[C@H]3c4[nH]c5ccc(O)cc5c4CCN(C2)C13 [HCl, Form A, noribogaine hydrochloride] < 1000 µg/mL

###

# testName: Approximate ambient-temperature solubility, solvent addition method
# Type: physicochemical
# protocolConditions: organic solvent or mixture, thermodynamic from solid; THF, ambient temperature
Where a name gives a salt, the structure may show the parent alone.
measurementKind: solubility

Give the reported value of solubility for this record: CC[C@H]1CC2C[C@H]3c4[nH]c5ccc(O)cc5c4CCN(C2)C13 [HCl, Form A, noribogaine hydrochloride] < 1000 µg/mL

###

# testName: Approximate ambient-temperature solubility, solvent addition method
# Type: physicochemical
# protocolConditions: aqueous with cosolvent or surfactant or cyclodextrin, thermodynamic from solid; TFE:water 50:50, ambient temperature
Structures can show the parent of a compound that is named as a salt.
measurementKind: solubility (µg/mL)
Write it as a number; the unit µg/mL goes unstated.

Give the reported value of solubility for this record: CC[C@H]1CC2C[C@H]3c4[nH]c5ccc(O)cc5c4CCN(C2)C13 [HCl, Form A, noribogaine hydrochloride] 10000

###

# testName: Approximate ambient-temperature solubility, solvent addition method
# Assay type: physicochemical
# protocolConditions: thermodynamic from solid; Water, added all at once, stirred ~24 hours
Where a name gives a salt, the structure may show the parent alone.
measurementKind: solubility

Give the reported value of solubility for this record: CC[C@H]1CC2C[C@H]3c4[nH]c5ccc(O)cc5c4CCN(C2)C13 [HCl, Form A, noribogaine hydrochloride] < 4000 µg/mL

###

# testName: Approximate ambient-temperature solubility, solvent addition method
# Assay type: physicochemical
# protocolConditions: aqueous with cosolvent or surfactant or cyclodextrin, thermodynamic from solid; Acetone:water 50:50, ambient temperature
Counter-ions that a name gives are not always drawn.
measurementKind: solubility (mg/mL)
Write it as a number; the unit mg/mL goes unstated.

Give the reported value of solubility for this record: CC[C@H]1CC2C[C@H]3c4[nH]c5ccc(O)cc5c4CCN(C2)C13 [HCl, Form A, noribogaine hydrochloride] 11

###

# testName: Approximate ambient-temperature solubility, solvent addition method
# Assay type: physicochemical
# protocolConditions: organic solvent or mixture, thermodynamic from solid; HFIPA, ambient temperature
# Method: The approximate ambient-temperature solubilities of noribogaine hydrochloride Form A were measured in a variety of solvents and solvent mixtures using the solvent addition method (Table 2). The solubility of noribogaine hydrochloride ansolvate were determined as tabulated below.
Structures can show the parent of a compound that is named as a salt.
measurementKind: solubility (µg/mL)
Write it as a number; the unit µg/mL goes unstated.

Give the reported value of solubility for this record: CC[C@H]1CC2C[C@H]3c4[nH]c5ccc(O)cc5c4CCN(C2)C13 [HCl, Form A, noribogaine hydrochloride] 10000

###

# testName: Approximate ambient-temperature solubility, solvent addition method
# Type: physicochemical
# protocolConditions: organic solvent or mixture, thermodynamic from solid; MeOH, ambient temperature
Counter-ions that a name gives are not always drawn.
measurementKind: solubility (µg/mL)
Write it as a number; the unit µg/mL goes unstated.

Give the reported value of solubility for this record: CC[C@H]1CC2C[C@H]3c4[nH]c5ccc(O)cc5c4CCN(C2)C13 [HCl, Form A, noribogaine hydrochloride] 2000
